- METHOD: Antagonist activity at CCR9 receptor in human MOLT4 cells assessed as inhibition of CCl25-mediated cell migration preincubated for 30 mins followed CCL25 addition incubated for 2 hrs by ChemoTx plate system
Below, each of the molecules is paired with its reported Ki value.

MOLECULE: CC(C)(C)c1ccc(S(=O)(=O)Nc2ccc(Cl)c3c2C(=O)N(Cc2cccnc2)C3=O)cc1 [US9969687, Compound 64]
Ki: 357 nM
//
MOLECULE: Cc1ccc(N2C(=O)c3c(Cl)ccc(NS(=O)(=O)c4ccc(C(C)(C)C)cc4)c3C2=O)c(C)n1 [US9969687, Compound 224]
Ki: > 300 nM
//
MOLECULE: CC(C)(C)c1ccc(S(=O)(=O)Nc2ccc(Cl)c3c2C(=O)N(Cc2ccncc2)C3=O)cc1 [US9969687, Compound 201]
Ki: > 100 nM

Taken from BindingDB's records for doi:10.1021/acs.jmedchem.5b01840.
